Parameter IC50: see the listing below.
experimental system: MEK1 (Homo sapiens, UniProt Q02750, DEL33-52/S218E/S222D)
Sequence (Q02750 with tags, fused parts or gaps DEL33-52/S218E/S222D): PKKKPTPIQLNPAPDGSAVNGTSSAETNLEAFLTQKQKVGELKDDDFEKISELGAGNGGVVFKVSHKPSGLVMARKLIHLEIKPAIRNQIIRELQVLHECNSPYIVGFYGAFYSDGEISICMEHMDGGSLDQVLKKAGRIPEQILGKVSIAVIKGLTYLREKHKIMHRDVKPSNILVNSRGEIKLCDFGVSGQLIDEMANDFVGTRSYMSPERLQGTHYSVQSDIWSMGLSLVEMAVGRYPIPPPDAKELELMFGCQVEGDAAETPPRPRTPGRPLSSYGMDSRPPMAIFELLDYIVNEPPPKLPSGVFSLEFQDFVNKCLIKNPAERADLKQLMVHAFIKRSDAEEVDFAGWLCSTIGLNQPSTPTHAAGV
procedure details: MEK1 inhibition, ERK1/FI-Erktide fluorescence polarization assay with IMAP beads

Cc1c(Nc2ccc(I)cc2F)c2c(=O)n(CCO)cnc2n(C)c1=O [Example 14] ... ≤ 5 nM

Enquiry: Which IC50 is reported for this molecule? CC(O)Cn1cnc2c(c(Nc3ccc(I)cc3F)cc(=O)n2C)c1=O (stereo not drawn) [Example 38]
Return: ≥ 16 nM

Enquiry: Also need Cc1c(Nc2ccc(Br)cc2F)c2c(=O)n(C[C@@H](O)CO)cnc2n(C)c1=O [Example 10] , thanks.
Return: ≥ 16 nM

----------
experimental system: MEK1 (Homo sapiens, UniProt Q02750, DEL33-52/S218E/S222D)
procedure details: MEK1 inhibition, ERK1/FI-Erktide fluorescence polarization assay with IMAP beads
Parameter IC50: see the listing below.

C#Cc1ccc(Nc2c(C)c(=O)n(C)c3ncn(C[C@H](O)CO)c(=O)c23)c(F)c1 [Example 44] ... 5 to 15 nM
Cc1c(Nc2ccc(I)cc2F)c2c(=O)n(C(CO)CO)cnc2n(C)c1=O [Example 43] ... 5 to 15 nM
Cn1c(=O)c(Cl)c(Nc2ccc(I)cc2F)c2c(=O)n(CCCO)cnc21 [Example 32] ... ≤ 5 nM
Cn1c(=O)cc(Nc2ccc(Br)cc2F)c2c(=O)n(CCCO)cnc21 [Example 33] ... ≥ 16 nM
Cn1c(=O)c(Cl)c(Nc2ccc(I)cc2F)c2c(=O)n(CCO)cnc21 [Example 30] ... ≤ 5 nM
CC(O)Cn1cnc2c(c(Nc3ccc(I)cc3F)c(Cl)c(=O)n2C)c1=O (centres unmarked) [Example 40] ... 5 to 15 nM
C#Cc1ccc(Nc2c(F)c(=O)n(C)c3ncn(C[C@H](O)CO)c(=O)c23)c(F)c1 [Example 21] ... 5 to 15 nM
Cn1c(=O)cc(Nc2ccc(Br)cc2Cl)c2c(=O)n(CCCO)cnc21 [Example 35] ... ≥ 16 nM
C#Cc1ccc(Nc2c(C)c(=O)n(C)c3ncn(C[C@@H](O)CO)c(=O)c23)c(F)c1 [Example 16] ... 5 to 15 nM
Cn1c(=O)c(Cl)c(Nc2ccc(Br)cc2Cl)c2c(=O)n(CCCO)cnc21 [Example 36] ... ≥ 16 nM

Enquiry: Form field: IC50 recorded for Cn1c(=O)c(F)c(Nc2ccc(NS(C)(=O)=O)cc2F)c2c(=O)n(C[C@@H](O)CO)cnc21 [Example 23] with MEK1 (Homo sapiens, UniProt Q02750, DEL33-52/S218E/S222D) (enter value)
Return: ≥ 16 nM

Enquiry: Also need Cn1c(=O)c(Cl)c(Nc2ccc(Br)cc2F)c2c(=O)n(CCCO)cnc21 [Example 34] , thanks.
Return: 5 to 15 nM

----------
Parameter IC50: see the listing below.
experimental system: MEK1 (Homo sapiens, UniProt Q02750, DEL33-52/S218E/S222D)
procedure details: MEK1 inhibition, ERK1/FI-Erktide fluorescence polarization assay with IMAP beads

Enquiry: Which IC50 is reported for this molecule? Cn1c(=O)c(Cl)c(Nc2ccc(I)cc2F)c2c(=O)n(C[C@H](O)CO)cnc21 [Example 7]
Return: ≤ 5 nM

Enquiry: Also need Cn1c(=O)c(F)c(Nc2ccc(I)cc2F)c2c(=O)n(C[C@H](O)CO)cnc21 [Example 19] , thanks.
Return: ≤ 5 nM

Enquiry: Also need Cc1c(Nc2ccc(Br)cc2F)c2c(=O)n(C[C@H](O)CO)cnc2n(C)c1=O [Example 9] , thanks.
Return: ≥ 16 nM

Enquiry: Also need CN(C)CCn1cnc2c(c(Nc3ccc(I)cc3F)cc(=O)n2C)c1=O [Example 37] , thanks.
Return: ≥ 16 nM

Enquiry: Also need COC(=O)Cn1cnc2c(c(Nc3ccc(I)cc3F)cc(=O)n2C)c1=O [Example 3] , thanks.
Return: ≥ 16 nM

Enquiry: Also need Cc1c(Nc2ccc(Br)cc2F)c2c(=O)n(CCO)cnc2n(C)c1=O [Example 11] , thanks.
Return: ≥ 16 nM

Enquiry: Also need C#Cc1ccc(Nc2c(F)c(=O)n(C)c3ncn(C[C@@H](O)CO)c(=O)c23)c(F)c1 [Example 22] , thanks.
Return: ≤ 5 nM

Enquiry: Also need Cn1c(=O)c(F)c(Nc2ccc(I)cc2F)c2c(=O)n(OC[C@H](O)CO)cnc21 [Example 28] , thanks.
Return: ≤ 5 nM

Enquiry: Also need Cn1c(=O)c(F)c(Nc2ccc(I)cc2F)c2c(=O)n(C(CO)CO)cnc21 [Example 25] , thanks.
Return: ≤ 5 nM

----------
experimental system: MEK1 (Homo sapiens, UniProt Q02750, DEL33-52/S218E/S222D)
procedure details: MEK1 inhibition, ERK1/FI-Erktide fluorescence polarization assay with IMAP beads
assay metric: IC50

Cn1c(=O)cc(Nc2ccc(I)cc2F)c2c(=O)n(CCCO)cnc21 ... ≤ 0.005 µM

Enquiry: Which IC50 is reported for this compound? Cn1c(=O)c(Cl)c(Nc2ccc(Br)cc2F)c2c(=O)n(C[C@@H](O)CO)cnc21
Return: 0.005 to 0.015 µM

Enquiry: Also need Cc1c(Nc2ccccc2F)c2c(=O)n(CCO)cnc2n(C)c1=O , thanks.
Return: ≥ 0.016 µM

Enquiry: Also need Cn1c(=O)c(F)c(Nc2ccc(I)cc2F)c2c(=O)n(C[C@@H](O)CO)cnc21 , thanks.
Return: ≤ 0.005 µM

Enquiry: Also need Cn1c(=O)cc(Nc2ccc(I)cc2F)c2c(=O)n(Cc3ccccc3)cnc21 , thanks.
Return: ≥ 0.016 µM
